Task for the reader: assign each of the following compounds its reported herbicidal effect rating.
Test system: SETVI
assay text: Preemergence herbicidal evaluation
Format: in vivo
Design: scale not given here
cond: 0.1250 kg/ha
One number for each entry.

Study these solved cases before continuing.
Entry O=C1C2=C(CCCC2)C(=O)N1c1ccc2sncc2c1 [C] , herbicidal effect rating reported as 2.0

# herbicidal effect rating (compound: O=C1C2=C(CCCC2)C(=O)N1c1ccc2snc(-c3ccccc3)c2c1 [A] ) is 2.5

Given item Cn1c(C(F)(F)F)cc(=O)n(-c2ccc3snc(-c4ccccc4)c3c2)c1=O [Compound 4] , the value recorded as its herbicidal effect rating is 9.0

The recorded herbicidal effect rating for entry Cc1nsc2ccc(-n3c(=O)cc(C(F)(F)F)n(C)c3=O)cc12 [Compound 6] equals 9.0

The compound listed as Cc1nsc2ccc(N3C(=O)C4=C(CCCC4)C3=O)cc12 [B] shows herbicidal effect rating equal to 2.0

Now for a further compound.
Noted for CN(C)C(=O)c1nsc2ccc(-n3c(=O)cc(C(F)(F)F)n(C)c3=O)cc12 [Compound 329] : its herbicidal effect rating reads 9.0

* * *

System: ORYSAT Rice, Tebonnet
assay text: Tolerance of transplanted rice to post-transplant application (Table III)
Assay type: in vivo, Oryza sativa
Set-up: scale not given here
cond: 0.2500 kg/ha, crop tolerance
recorded endpoint: herbicidal effect rating

Known value: ORYSAT Rice, Tebonnet herbicidal effect rating of the compound COc1ccc(C)cc1-c1nsc2ccc(-n3c(=O)cc(C(F)(F)F)n(C)c3=O)cc12 [Compound 1] equals 7.7

The compound COC(=O)COc1ccc(C)cc1-c1nsc2ccc(-n3c(=O)cc(C(F)(F)F)n(C)c3=O)cc12 [Compound 2] , tested on ORYSAT Rice, Tebonnet, showed herbicidal effect rating of 5.0

Observed herbicidal effect rating on ORYSAT Rice, Tebonnet, entry Cn1c(C(F)(F)F)cc(=O)n(-c2ccc3snc(-c4ccccc4)c3c2)c1=O [Compound 4] , equals 8.0

Given the compound CCc1ccc(-c2nsc3ccc(-n4c(=O)cc(C(F)(F)F)n(C)c4=O)cc23)cc1 [Compound 5] and test system ORYSAT Rice, Tebonnet, the measured herbicidal effect rating is 5.0

The compound COC(=O)COc1cc(C)c(C)cc1-c1nsc2ccc(-n3c(=O)cc(C(F)(F)F)n(C)c3=O)cc12 [Compound 12] , when measured on ORYSAT Rice, Tebonnet, yielded herbicidal effect rating of 8.0

Response field herbicidal effect rating (ORYSAT Rice, Tebonnet) for item COC(=O)COc1cc(C)ccc1-c1nsc2ccc(-n3c(=O)cc(C(F)(F)F)n(C)c3=O)cc12 [Compound 8] : 9.0

Hey, can you go through the list below and give me herbicidal effect rating for every item?
1. COc1cc(C)ccc1-c1nsc2ccc(-n3c(=O)cc(C(F)(F)F)n(C)c3=O)cc12 [Compound 7]
2. Cc1nsc2ccc(-n3c(=O)cc(C(F)(F)F)n(C)c3=O)cc12 [Compound 6]

Key:
1: 7.0; 2: 8.0

* * *

System: SETVI
assay text: Postemergence herbicidal evaluation
Type: in vivo
cond: 0.2500 kg/ha
recorded endpoint: herbicidal effect rating
One number for each entry.

Lab book: herbicidal effect rating of O=C1C2=C(CCCC2)C(=O)N1c1ccc2sncc2c1 noted as 0.0

herbicidal effect rating reported for this compound Cc1nsc2ccc(N3C(=O)C4=C(CCCC4)C3=O)cc12 : 5.0

Lab book: herbicidal effect rating of Cc1nsc2ccc(-n3c(=O)cc(C(F)(F)F)n(C)c3=O)cc12 noted as 9.0

Query Cn1c(C(F)(F)F)cc(=O)n(-c2ccc3snc(-c4ccccc4)c3c2)c1=O yields herbicidal effect rating of 9.0

Now consider the entry below.
Quick note, herbicidal effect rating for O=C1C2=C(CCCC2)C(=O)N1c1ccc2snc(-c3ccccc3)c2c1 landed at 2.7

* * *

Tested on: GLXMAW
assay text: Preemergence herbicidal evaluation
Assay type: in vivo
Parameters: scale not given here
cond: 0.0313-0.0320 kg/ha
Consider the following compounds; for each one, report its herbicidal effect rating.
Numbers only.

Tested system GLXMAW; herbicidal effect rating recorded for O=C1C2=C(CCCC2)C(=O)N1c1ccc2snc(-c3ccccc3)c2c1 was 0.0

# Cc1nsc2ccc(N3C(=O)C4=C(CCCC4)C3=O)cc12 with GLXMAW: herbicidal effect rating is 0.0

Log: GLXMAW, compound O=C1C2=C(CCCC2)C(=O)N1c1ccc2sncc2c1 , herbicidal effect rating = 0.0

Would you kindly look at the next entry?
Value (herbicidal effect rating, GLXMAW) for record CN(C)C(=O)c1nsc2ccc(-n3c(=O)cc(C(F)(F)F)n(C)c3=O)cc12 = 6.0

* * *

Would you kindly list herbicide rating (0-9) for each of these compounds?
System: Corn, Field, Zea mays
assay text: Postemergence herbicidal evaluation, ZEAMX
Type: in vivo, L.
cond: 0.0630 kg/ha
One number for each entry.

Lab book: herbicide rating (0-9) of C#CCOC(=O)C(C)Oc1ccc(C)cc1-c1nsc2ccc(-n3c(=O)cc(C(F)(F)F)n(C)c3=O)cc12 (stereo not drawn) noted as 8.0

Briefly, herbicide rating (0-9) measured for Cc1ccc(OCC(=O)OC(C)(C)C)c(-c2nsc3ccc(-n4c(=O)cc(C(F)(F)F)n(C)c4=O)cc23)c1 : 5.0

Item: COC(=O)C(C)Oc1ccc(C)cc1-c1nsc2ccc(-n3c(=S)cc(C(F)(F)F)n(C)c3=O)cc12 (stereo not drawn) | herbicide rating (0-9): 8.5

The value of herbicide rating (0-9) measured for the compound Cc1nsc2ccc(-n3c(=O)cc(C(F)(F)F)n(C)c3=O)cc12 turned out to be 4.5

GET /value?item= C=CCOc1ccc(C)cc1-c1nsc2ccc(-n3c(=O)cc(C(F)(F)F)n(C)c3=O)cc12 &field=herbicide rating (0-9) returns 5.5

The value of herbicide rating (0-9) measured for the compound COc1ccc(C)cc1-c1nsc2ccc(-n3c(=O)cc(C(F)(F)F)n(C)c3=O)cc12 turned out to be 6.0

Query Cn1c(C(F)(F)F)cc(=O)n(-c2ccc3snc(Br)c3c2)c1=O yields herbicide rating (0-9) of 1.5

Record Cc1ccc(OCC(=O)OCc2ccccn2)c(-c2nsc3ccc(-n4c(=O)cc(C(F)(F)F)n(C)c4=O)cc23)c1 . Reported herbicide rating (0-9): 8.0

herbicide rating (0-9) reading for Cc1ccc(OCC(=O)n2cnc3ccccc32)c(-c2nsc3ccc(-n4c(=O)cc(C(F)(F)F)n(C)c4=O)cc23)c1 : 7.0

Lab book: herbicide rating (0-9) of CCC(CC)OC(=O)COc1ccc(C)cc1-c1nsc2ccc(-n3c(=O)cc(C(F)(F)F)n(C)c3=O)cc12 noted as 6.0

Each of the following entries comes with a recorded value; kindly state herbicide rating (0-9) for each.
1. CC#CCOC(=O)C(C)Oc1ccc(C)cc1-c1nsc2ccc(-n3c(=O)cc(C(F)(F)F)n(C)c3=O)cc12 (stereo not drawn)
2. Cc1ccc(OC(C)C(=O)OCc2ccco2)c(-c2nsc3ccc(-n4c(=O)cc(C(F)(F)F)n(C)c4=O)cc23)c1 (stereo not drawn)
3. Cn1c(C(F)(F)F)cc(=O)n(-c2ccc3onc(-c4ccccc4)c3c2)c1=O

Key:
[7.5, 7.5, 4.5]

Please give herbicide rating (0-9), item by item, for the list that follows.
1. CC(=O)OCc1nsc2ccc(-n3c(=O)cc(C(F)(F)F)n(C)c3=O)cc12
2. COC(=O)C(C)Oc1c(C)cc(C)cc1-c1nsc2ccc(-n3c(=O)cc(C(F)(F)F)n(C)c3=O)cc12 (stereo not drawn)

Key:
5.5
7.0

* * *

Please respond with reported herbicidal effect rating for every item in the list.
System: CHEAL
assay text: Preemergence herbicidal evaluation
Type: in vivo
Design: scale not given here
cond: 0.2500 kg/ha
One number for each entry.

Provide the reported herbicidal effect rating of each entry below, same order.
1. O=C1C2=C(CCCC2)C(=O)N1c1ccc2snc(-c3ccccc3)c2c1
2. Cn1c(C(F)(F)F)cc(=O)n(-c2ccc3snc(-c4ccccc4)c3c2)c1=O
3. Cc1nsc2ccc(-n3c(=O)cc(C(F)(F)F)n(C)c3=O)cc12
4. O=C1C2=C(CCCC2)C(=O)N1c1ccc2sncc2c1
5. Cc1nsc2ccc(N3C(=O)C4=C(CCCC4)C3=O)cc12
6. CN(C)C(=O)c1nsc2ccc(-n3c(=O)cc(C(F)(F)F)n(C)c3=O)cc12

Key:
7.0
9.0
9.0
3.0
9.0
9.0

* * *

System: CASOB
assay text: Postemergence herbicidal evaluation
Type: in vivo
cond: 0.0157-0.0160 kg/ha
Please go through the items and note down their herbicidal effect rating.
Answers are plain numbers.

Here is how some compounds turned out for herbicidal effect rating.
For the compound Cc1nsc2ccc(-n3c(=O)cc(C(F)(F)F)n(C)c3=O)cc12 [Compound 6] , the measured herbicidal effect rating on CASOB was 0.0

GET /values?item= Cn1c(C(F)(F)F)cc(=O)n(-c2ccc3snc(-c4ccccc4)c3c2)c1=O [Compound 4] &system= CASOB returns herbicidal effect rating: 7.0

Readout herbicidal effect rating for Cc1nsc2ccc(N3C(=O)C4=C(CCCC4)C3=O)cc12 [B] , test system CASOB, was 6.0

Here is another compound to look at.
Entry O=C1C2=C(CCCC2)C(=O)N1c1ccc2sncc2c1 [C] , tested on CASOB, has a reported herbicidal effect rating of 3.0
